Documented %Inh across a set of compounds
Test system: PLK1
COND: concentration: 1 μM, replicates: in singlicate; n = 1;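 also: KINOMEscan kinase panel screen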
MEASUREMENT KIND: %Inh

> print(dat)
                                    compound  result
 1  CCC(=O)c1c(-c2ccccc2)c2cc(Cl)ccc2c(=O)n1Cc1cc(S(C)(=O)=O)n(CCC(C)(C)O)n1      0%
 2  COc1ccc(-c2coc3ccc(-c4nnc(SCc5cccc(C#N)c5)o4)cc23)cc1      0%
 3  COc1cc2nccc(Nc3ccc(OCc4ccc(NC(C)=O)cc4)cc3)c2cc1OC.Cl     12%
 4     Nc1nc(-c2ccccc2F)c(-c2ccnc3ccccc23)s1      2%
 5  Cc1nc(N(C)[C@H]2CN(C(=O)CC#N)CC[C@H]2C)c2cc[nH]c2n1      0%
 6  COC(=O)c1c(-c2ccccc2)c2cc(Br)ccc2c(=O)n1Cc1ccc(NC(=O)CCC(=O)O)cc1      0%
 7               Nc1ncnc2c1ncn2-c1ccc(Cl)cc1      0%
 8  COc1cc2ncn(-c3cc(OCc4ccncc4Br)c(C(N)=O)s3)c2cc1OC   99.9%
 9  Cc1nnc(-c2ccc3ncn(-c4ccc(S(C)=O)cc4)c3c2)o1 (stereo not drawn)      0%
10  COc1cccc(C2=C(N(C)c3ccccc3)C(=O)NC2=O)c1      0%
11  Cl.c1ccc(Cn2cnc3cc(Nc4ncnc5ccccc45)ccc32)cc1      0%
12  COC(=O)c1c(-c2ccccc2)c2cc(Br)ccc2c(=O)n1Cc1ccc(S(C)(=O)=O)cc1      0%
13   O=C(Nc1n[nH]c2cc(-c3ccccc3F)ccc12)C1CC1      0%
14        CCc1nc(-c2cccc(C)c2)c(-c2ccncc2)s1      0%
15  Nc1nccc2scc(-c3ccc4c(c3)CCN4C(=O)Cc3ccccc3)c12      6%
16  Cn1c(=O)c(F)c(Nc2ccc(I)cc2F)c2c(=O)n(OC[C@H](O)CO)cnc21     14%
17  COc1ccc(-c2cc3c(C)nc(N)nc3n([C@H]3CC[C@H](O)CC3)c2=O)cn1      0%
18                Nc1ncnc2c1ncn2-c1cccc(F)c1     34%

* * *

System: RSK1(Kin.Dom.2-C-terminal)
Construct: gene RPS6KA1
COND: concentration: 1 μM, replicates: in singlicate; n = 1
MEASUREMENT KIND: %Inh (%)

> print(dat)
                                   compound  result.units  measured.number
1  CCS(=O)(=O)c1ccc(OC)c(Nc2ncc(-c3ccc(F)cc3)o2)c1.Cl             %                0
2  Cc1nc(N(C)[C@H]2CN(C(=O)CC#N)CC[C@H]2C)c2cc[nH]c2n1             %                0
3  COc1cc2ncn(-c3cc(OCc4ccncc4Br)c(C(N)=O)s3)c2cc1OC             %               22
4  Nc1nccc2scc(-c3ccc4c(c3)CCN4C(=O)Cc3ccccc3)c12             %               20
5  Cc1nn2c(=O)cc(N3CCOCC3)nc2n1Cc1cccc(Cl)c1Cl             %                0
6      O=C1NC(=O)C(c2ccccc2)=C1Nc1cccc(O)c1             %                0
7  COc1ccc(-c2coc3ccc(-c4nnc(SCc5cccc(C#N)c5)o4)cc23)cc1             %               24
8  COc1cc2ncn(-c3cc(OCc4ccncc4)c(C(N)=O)s3)c2cc1OC             %                0
9  COc1cc2ncn(-c3cc(OCCCc4ccccc4)c(C(N)=O)s3)c2cc1OC             %               10

* * *

Documented %Inh across a set of compounds
Tested on: ERBB2
COND: concentration: 1 μM, replicates: in singlicate; n = 1
MEASUREMENT KIND: %Inh (%)

> print(dat)
                                   compound  measured.number
1  CCC(=O)c1c(-c2ccccc2)c2cc(Cl)ccc2c(=O)n1Cc1cc(S(C)(=O)=O)n(CCC(C)(C)O)n1                0
2  COc1cc2ncn(-c3cc(OCc4ccc(S(C)(=O)=O)cc4)c(C(N)=O)s3)c2cc1OC                0
3  C[C@@H]1CC[C@H](C(=O)NC2CCCCC2)CN1c1cc(-c2ccc3c(N)n[nH]c3c2)nc(N)n1               21
4  Cc1nn2c(=O)cc(N3CCOCC3)nc2n1Cc1cccc(Cl)c1Cl                0
5  COc1ccc(-c2coc3ccc(-c4nnc(SCc5cccc(C#N)c5)o4)cc23)cc1               14

* * *

Tested on: CSF1R-autoinhibited
COND: concentration: 1 μM, replicates: in singlicate; n = 1
Documented %Inh across a set of molecules
MEASUREMENT KIND: %Inh (%)

> print(dat)
                                   molecule  measured.number
1  Cc1ccc(Oc2ccc(Nc3ncnc4cc[nH]c34)cc2C)cn1                0
2  COc1cc(Nc2nccc(N3CCC(NC(=O)C4COc5ccccc5O4)C3)n2)cc(OC)c1OC (stereo not drawn) [GSK1379761]               58
3  Cc1c(Cn2c(C)nn3c(=O)cc(N4CCO[C@H](C)C4)nc23)cccc1C(F)(F)F [GSK2373690]                0
4     CCn1c(-c2ccoc2)nc2cnccc21 [SB-733887]               15
5  COc1cc2nccc(Nc3ccc(OCc4ccc(NC(C)=O)cc4)cc3)c2cc1OC.Cl [GW440135]               25
6  Cn1c(=O)c(F)c(Nc2ccc(I)cc2F)c2c(=O)n(OC[C@H](O)CO)cnc21                0
7  CCC(=O)c1c(-c2ccccc2)c2cc(Cl)ccc2c(=O)n1Cc1cc(S(C)(=O)=O)n(CCC(C)(C)O)n1                6
8  Cc1cc(Nc2nc(-c3cccc(C)n3)nc3ccccc23)ccn1 [GW872411]                0
9  COc1ccc(-c2coc3ccc(-c4nnc(SCc5cccc(C#N)c5)o4)cc23)cc1                0

* * *

Documented %Inh across a set of compounds
System: RSK2(Kin.Dom.1-N-terminal)
Construct: gene RPS6KA3
COND: concentration: 1 μM, replicates: in singlicate; n = 1
MEASUREMENT KIND: %Inh (%)

> print(dat)
                                   compound  measured.number
1  CCS(=O)c1ccc(-c2coc3ccc(-c4nnc(C)o4)cc23)cc1 (stereo not shown)                5
2     Nc1nc(-c2ccccc2F)c(-c2ccnc3ccccc23)s1                6
3  Cc1nc(N(C)[C@H]2CN(C(=O)CC#N)CC[C@H]2C)c2cc[nH]c2n1                0
4  COc1cc2ncn(-c3cc(OCc4ccncc4)c(C(N)=O)s3)c2cc1OC                6
5  COc1cc2nccc(Nc3cccc(Oc4ccccc4)c3)c2cc1OC.Cl                0
6  COc1ccc(Nc2nccc(N3CCC(NS(=O)(=O)c4ccc(NC(C)=O)cc4)C3)n2)cc1 (stereo not shown)                0
7  O=C(Nc1n[nH]c2nc(-c3ccccc3)c(Cl)cc12)C1CC1               29

* * *

Test system: GRK1
COND: concentration: 1 μM, replicates: in singlicate; n = 1
Assign satisfied to entries whose %Inh meets or exceeds 10%; assign not satisfied to the rest.

> print(dat)
                                    compound  study.system          label
 1  Nc1nccc2scc(-c3ccc4c(c3)CCN4C(=O)Cc3ccccc3)c12          GRK1  not satisfied
 2   O=C(Nc1n[nH]c2cc(-c3ccccc3F)ccc12)C1CC1          GRK1      satisfied
 3             COc1cccc(-n2cnc3c(N)ncnc32)c1          GRK1      satisfied
 4  CCC(=O)c1c(-c2ccccc2)c2cc(Cl)ccc2c(=O)n1Cc1cc(S(C)(=O)=O)n(CC(N)=O)n1          GRK1      satisfied
 5  COc1cccc(C2=C(Nc3cccc(C(=O)O)c3)C(=O)NC2=O)c1          GRK1      satisfied
 6  COc1ccc(-c2coc3ccc(-c4nnc(SCc5cccc(C#N)c5)o4)cc23)cc1          GRK1  not satisfied
 7  Cc1nnc(-c2ccc(C)c(-c3ccc(C(=O)O)cc3)c2)o1          GRK1  not satisfied
 8                CCn1c(-c2nonc2N)nc2ccccc21          GRK1      satisfied
 9  CCS(=O)c1ccc(-c2coc3ccc(-c4nnc(C)o4)cc23)cc1 (stereo not drawn)          GRK1  not satisfied
10  CCS(=O)(=O)c1ccc(OC)c(Nc2ncc(-c3ccc(F)cc3)o2)c1.Cl          GRK1  not satisfied
11  COc1cc2nccc(Nc3ccc(OCc4ccc(NC(C)=O)cc4)cc3)c2cc1OC.Cl          GRK1      satisfied
12  Cc1nn2c(=O)cc(N3CCOCC3)nc2n1Cc1cccc(Cl)c1Cl          GRK1  not satisfied
